Sourced from patent US6410542B1

Target: Human inducible NOS (hiNOS) (Homo sapiens)
Sequence (P35228 whole entry): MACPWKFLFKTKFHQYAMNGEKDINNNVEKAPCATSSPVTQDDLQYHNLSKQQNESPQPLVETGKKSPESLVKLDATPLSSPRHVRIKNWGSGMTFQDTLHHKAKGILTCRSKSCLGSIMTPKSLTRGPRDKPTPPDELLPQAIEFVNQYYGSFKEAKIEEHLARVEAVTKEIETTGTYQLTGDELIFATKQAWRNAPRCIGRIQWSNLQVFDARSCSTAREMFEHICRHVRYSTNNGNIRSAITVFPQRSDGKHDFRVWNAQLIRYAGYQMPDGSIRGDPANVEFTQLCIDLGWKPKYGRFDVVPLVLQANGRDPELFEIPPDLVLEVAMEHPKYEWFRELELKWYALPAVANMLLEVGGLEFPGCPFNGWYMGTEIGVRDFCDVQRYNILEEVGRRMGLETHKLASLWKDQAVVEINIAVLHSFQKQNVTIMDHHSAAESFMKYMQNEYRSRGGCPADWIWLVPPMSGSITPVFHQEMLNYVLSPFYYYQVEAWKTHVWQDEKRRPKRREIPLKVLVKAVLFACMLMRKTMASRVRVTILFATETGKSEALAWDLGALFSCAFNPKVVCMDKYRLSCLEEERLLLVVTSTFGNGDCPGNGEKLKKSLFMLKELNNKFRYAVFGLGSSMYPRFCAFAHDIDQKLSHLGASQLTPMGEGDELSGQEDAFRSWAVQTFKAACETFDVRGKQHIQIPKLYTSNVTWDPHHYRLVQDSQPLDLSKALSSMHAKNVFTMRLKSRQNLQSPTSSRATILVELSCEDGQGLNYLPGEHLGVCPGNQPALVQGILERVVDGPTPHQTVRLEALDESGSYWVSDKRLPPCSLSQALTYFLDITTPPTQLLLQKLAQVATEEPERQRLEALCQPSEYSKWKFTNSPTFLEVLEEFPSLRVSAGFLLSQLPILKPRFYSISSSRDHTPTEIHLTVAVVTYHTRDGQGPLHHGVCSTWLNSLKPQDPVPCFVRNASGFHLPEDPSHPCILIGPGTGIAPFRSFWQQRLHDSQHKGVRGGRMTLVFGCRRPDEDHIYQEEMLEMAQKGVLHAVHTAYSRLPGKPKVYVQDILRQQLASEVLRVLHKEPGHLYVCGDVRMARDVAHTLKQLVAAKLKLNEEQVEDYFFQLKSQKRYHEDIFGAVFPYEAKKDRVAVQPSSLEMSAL
Assay: Citrulline assay for nitric oxide synthase, hiNOS
Type: biochemical
Details: recombinant enzyme, L-arginine to L-citrulline conversion, 37° C., 15 minutes
Where a name gives a salt, the structure may show the parent alone.
recorded-metric: IC50 (µM)

> print(dat)
                                   compound                               system.name  experimental.result
1  CC(=N)NCCCC[C@H](N)C(=O)Nc1nnn[nH]1 [Example 1, Hydrate, Dihydrochloride]  Human inducible NOS (hiNOS) (Homo sapiens)                 21.4
